- experiment_summary: Intrinsic clearance in human liver microsomes
- Format: ADME, Microsome
- settings: read-out: CLH
assay_metric: microsomal CLint

CCN1C[C@H](Oc2ccc3c(c2)CN(C2CCC(=O)NC2=O)C3=O)CC[C@@H]1C (some centres undefined); < 25 µL/min/mg

Could you tell me microsomal CLint for each of these compounds? They are listed below.
1. CCN1C[C@H](C)C[C@@H](Oc2ccc3c(c2)CN(C2CCC(=O)NC2=O)C3=O)C1 (stereo in doubt; 10)
2. C[C@@H](Oc1ccc2c(c1)CN(C1CCC(=O)NC1=O)C2=O)[C@H]1CCCCN1C (some centres undefined)

1: < 10 µL/min/mg; 2: < 25 µL/min/mg

Read the entry CCN1CCCC[C@@H]1COc1ccc2c(c1)CN(C1CCC(=O)NC1=O)C2=O (some centres undefined) and write its reported microsomal CLint.
< 25 µL/min/mg
